- System: MKL-2
- test: qHTS assay to identify novel small-molecules to repurpose for Merkel cell carcinoma treatment (AID 1296009); also: nearly all actives have a fitted effect of over 60% in size
- condition-info: MCC and control cell lines, CellTiter-Glo viability, 72 h; series mostly up to 46 µM
Inconclusive results are not listed. Active and inactive are the calls of the source. Calls follow the shape of the dose curve; as a rule, active = well fitted inhibition curve with a large enough effect; inconclusive = small, poorly fitted or top-dose-only effect; inactive = flat fitted curve, though single readings scatter.
Labels: active, inactive

{"compound": "CCCNC(=O)[C@H]1O[C@H]1C(=O)N[C@H](C(=O)N1CCC[C@@H]1C(=O)OC)C(C)CC (some centres undefined)", "experimental-system": "MKL-2", "label-class": "active"}
{"compound": "CCN(CC)CCNC(=O)c1c(C)[nH]c(C=C2C(=O)Nc3ccc(F)cc32)c1C", "experimental-system": "MKL-2", "label-class": "active"}
{"compound": "Cc1cn([C@@H]2O[C@H](CO)[C@@H](O)[C@H]2F)c(=O)[nH]c1=O", "experimental-system": "MKL-2", "label-class": "inactive"}
{"compound": "OC[C@@H](O)[C@@H](O)[C@H](O)[C@@H](O)CO", "experimental-system": "MKL-2", "label-class": "inactive"}
{"compound": "O=c1[nH]c(=O)n([C@H]2C[C@@H](O)[C@@H](CO)O2)cc1C=CBr", "experimental-system": "MKL-2", "label-class": "inactive"}
{"compound": "COc1cc(OC)c(NC(=O)Nc2cc(C)on2)cc1Cl", "experimental-system": "MKL-2", "label-class": "inactive"}
{"compound": "CCN(C(=O)c1c(O)c2c(Cl)cccc2n(C)c1=O)c1ccccc1", "experimental-system": "MKL-2", "label-class": "inactive"}
{"compound": "CC(=O)NCC(=O)N1[C@H]2CC[C@H]1c1cc(Nc3ncc(C(F)(F)F)c(NC4CCC4)n3)ccc12", "experimental-system": "MKL-2", "label-class": "active"}
{"compound": "C=Cc1c(C)c2cc3nc(cc4[nH]c(cc5nc(cc1[nH]2)C(C)=C5CCC(=O)O)c(CCC(=O)OC)c4C)[C@@]1(C)C3=CC=C(C(=O)OC)[C@H]1C(=O)OC", "experimental-system": "MKL-2", "label-class": "active"}

---

- test: qHTS of pediatric cancer cell lines to identify multiple opportunities for drug repurposing: Primary screen for LAN-5 cells (AID 1347100)
- condition-info: LAN-5 neuroblastoma viability, CellTiter-Glo luminescence, 48 h; series mostly up to 46 µM
Inconclusive results are not listed. Active and inactive are the calls of the source. Calls follow the shape of the dose curve; as a rule, active = well fitted cell-killing curve with a large enough effect; inconclusive = small, poorly fitted or top-dose-only effect; inactive = no such curve, though single readings can be large or run the other way. Residues, ends and D or L forms follow the SMILES beside them. *: point of attachment. Cbz = O=C(OCc1ccccc1)*
Labels: t = active, f = inactive

{"molecule": "CC(C)C[C@@H](C=O)NC(=O)[C@H](CC(C)C)NC(=O)[C@H](CC(C)C)NC(=O)OCc1ccccc1 (Cbz-Leu-Leu-Leu-aldehyde)", "label-class": "t"}
{"molecule": "COc1cccc2c1C(=O)c1c(O)c3c(c(O)c1C2=O)C[C@@](O)(C(=O)CO)C[C@@H]3O[C@H]1C[C@H](N)[C@@H](O)[C@H](C)O1", "label-class": "t"}
{"molecule": "C[C@@H]1C(=O)O[C@H]2CC34[C@H]5C[C@@H](C(C)(C)C)C36[C@H](OC(=O)[C@@H]6O)O[C@@]4(C(=O)O5)[C@]21O (some centres not stated)", "label-class": "t"}
{"molecule": "CC(C)NC[C@@H](C(=O)N1CCN(c2ncnc3c2[C@H](C)C[C@H]3O)CC1)c1ccc(Cl)cc1", "label-class": "t"}
{"molecule": "N#Cc1ccc(COC[C@H]2O[C@@H](n3c(NCc4ccc(Cl)c(Cl)c4)nc4c(N)ncnc43)[C@@H](O)[C@@H]2O)cc1", "label-class": "t"}
{"molecule": "O=C(c1ccc(F)cc1)N1CCC[C@H](c2nc(-c3ccc(F)cc3)no2)C1", "label-class": "f"}
{"molecule": "CC(Oc1ccc(O)cc1)(P(=O)(O)O)P(=O)(O)O", "label-class": "f"}
